Test system: PC-3
Assay: NCI tumour cell line growth inhibition, 48 h
Activity calls are given as the source filed them. Rule as the data show it: active = GI50 up to about 1.1 µM and inactive = higher.
Quick reference for GI50 among some compounds

                            compound  experimental_system            reported
0  COc1ccc2[nH]c3c(c2c1)CCc1ccccc1-3                 PC-3  52.8 µM (inactive)

stdin: Which GI50 value belongs to COC1=CCC2=C(CCN(C(=O)C3CC3)C2Cc2ccc(OC)c(O)c2)C1 (stereo not given) ?
stdout: 35.6 µM (inactive)

stdin: Which GI50 value belongs to O=C1C(Cl)C2(CC(/C=C/c3ccccc3Cl)=NN2c2cccc(S(=O)(=O)O)c2)N1c1nc2ccccc2s1 (stereo not given) ?
stdout: 66.4 µM (inactive)

stdin: Which GI50 value belongs to CCCCNN ?
stdout: > 100 µM (inactive)

stdin: Which GI50 value belongs to Oc1cc(O)cc(-c2nc3cc(F)ccc3s2)c1 ?
stdout: 25.1 µM (inactive)

stdin: Which GI50 value belongs to COc1ccc2c(c1)N(CCC1CCCCN1C)c1ccccc1S2 (stereo not given) [OXYRIDAZINE] ?
stdout: 10.8 µM (inactive)

stdin: Which GI50 value belongs to O=[N+]([O-])/C(C(Cl)=C(Cl)Cl)=C(\Nc1ccccc1)n1nnc2ccccc21 ?
stdout: 40.6 µM (inactive)

Reference source for all entries: ChEMBL document CHEMBL1201862
